# TEST DETAILS: NCI Yeast Anticancer Drug Screen. Data for the bub3 strain (AID 167)
# TEST SETTINGS: S. cerevisiae bub3 mutant strain, at 3.7 µM, active compounds read high
The panel holds about 79,000 compounds, 15% with a hit somewhere; the sample as a whole holds those more often.
QUANTITY KIND: growth inhibition (%)
Field: numeric (%). Do not append units.

Which growth inhibition is listed for NC1=NNC2(C(N)=N1)c1ccccc1-c1ccccc12 ?
25

Which growth inhibition is listed for COC1CCC(O)C(/C=C/[N+](=O)[O-])C1 (stereo unspecified) ?
32

Which growth inhibition is listed for Cc1ccccc1N=C(NO)c1ccccc1 ?
-1

Which growth inhibition is listed for CC(=O)Nc1ccc(/C=C/[N+](=O)[O-])cc1 ?
-5

Which growth inhibition is listed for CC(C)(C)c1ccc(NS(=O)(=O)c2ccc(N)cc2)cc1 ?
5

Which growth inhibition is listed for COC1=C(OC)C(=O)C(Sc2ccc3ccccc3c2)=CC1=O ?
0

Which growth inhibition is listed for C/C(=N\Nc1ccc([N+](=O)[O-])cc1[N+](=O)[O-])c1sc(-n2nc(-c3ccccc3)cc2-c2ccccc2)nc1C ?
25

Which growth inhibition is listed for CC[N+](CC)(CC)c1ccccc1 ?
15

Which growth inhibition is listed for OC1(c2ccccc2)CCCc2ccc(Cl)cc21 (stereo unspecified) ?
-10

Which growth inhibition is listed for O=c1[nH]c2ccc(Cl)cc2o1 ?
-1

Which growth inhibition is listed for COc1cc(O)c(O)c(C(C)(C)C)c1 ?
-5

Which growth inhibition is listed for CC1(C)CC(=O)C(/C=N/c2nc(-c3ccccc3)cs2)=C(O)C1 ?
-3

Which growth inhibition is listed for COC(=O)Oc1cc(Cl)c(Cl)cc1Cl ?
3

Which growth inhibition is listed for CN(C)c1ccc2c(SCC(=O)OCC(=O)[C@@]3(O)CC[C@H]4[C@@H]5CCC6=CC(=O)C=C[C@]6(C)[C@H]5C(=O)C[C@@]43C)c3ccc(N(C)C)cc3nc2c1 ?
-4

Which growth inhibition is listed for COC(=O)CCC(NC(=S)N/N=C(\C)c1ccccn1)C(=O)OC (stereo unspecified) ?
28

Which growth inhibition is listed for Clc1ccc2c(c1)N(CCCN1CCCC13CCCCC3)c1ccccc1S2 ?
-13

Which growth inhibition is listed for Cc1ccc(N=Nc2ccc(O)c(=O)cc2)cc1 ?
3

Which growth inhibition is listed for O=[N+]([O-])c1ccc(N/N=C/Cc2ccccc2)c([N+](=O)[O-])c1 ?
2

Which growth inhibition is listed for CC(C)(CCCCC(C)(C)[N+](C)(C)C)[N+](C)(C)C ?
0

Which growth inhibition is listed for CCOc1ccc(NC(=O)C2=C(C)NC(C)=C(C(=O)Nc3ccc(OCC)cc3)C2c2cccc([N+](=O)[O-])c2)cc1 ?
-2

Which growth inhibition is listed for N#CC1=C(N)N(/N=C/c2ccccc2)C(c2ccccc2)C1(C#N)C#N (stereo unspecified) ?
21

Which growth inhibition is listed for CC1=C(SCc2ccccc2)C(=O)c2ccccc2C1=O ?
-17

Which growth inhibition is listed for COc1ccc(N=CN(C)C)c(C)c1 ?
-9

Which growth inhibition is listed for Cc1nc(-c2cc3cc([N+](=O)[O-])ccc3oc2=O)cs1 ?
-2

Which growth inhibition is listed for Cc1ccc(Sc2ccccc2N)cc1 ?
-2

Which growth inhibition is listed for S=c1[nH]c2cc3ccccc3cc2[nH]1 ?
15

Which growth inhibition is listed for C=C1C(=O)OC2CC1C(OC(C)=O)C/C(C)=C/CC/C(C)=C\CCC2(C)O (stereo unspecified) ?
-8

Which growth inhibition is listed for CCOC(=O)C(C(=O)OCC)=P(c1ccccc1)(c1ccccc1)c1ccccc1 ?
1

Which growth inhibition is listed for CN(CCN(C)Cc1ccccc1)Cc1ccccc1 ?
-15

Which growth inhibition is listed for C=C1CCC(O)C/C1=C/C=C1\CCCC2(C)C1CCC2C(C)CCCC(C)C (stereo unspecified) ?
-23

Which growth inhibition is listed for Cc1cc(NCCCCCCCCNc2cc(C)nc3cc(N)ccc23)c2ccc(N)cc2n1 ?
-45

Which growth inhibition is listed for Nc1ncc(-c2ccc(Br)cc2)s1 ?
-8

Which growth inhibition is listed for Cc1ccccc1N=Cc1cc(Cl)ccc1O ?
-4

Which growth inhibition is listed for C[C@]12CC[C@H](O)CC1=CC[C@@H]1C2CC[C@]2(C)C(=O)NC(=O)CC12 (stereo partly specified) ?
-15

Which growth inhibition is listed for COC(=O)C1(C)CCc2c(ccc3ccccc23)C1=O (stereo unspecified) ?
49

Which growth inhibition is listed for CN(C)c1ccc(N=Nc2ccncc2)cc1 ?
22

Which growth inhibition is listed for Cc1cc(S(=O)(=O)Nc2nnc3cnc4ccccc4n23)c(S)cc1Cl ?
1

Which growth inhibition is listed for COc1ccc(C2C3=C(COC3=O)OC(C)(C)Oc3cc4c(cc32)OCO4)cc1OC (stereo unspecified) ?
-56

Which growth inhibition is listed for Cc1ccc(NCCNCCO)c2c(=O)c3cc(O)ccc3sc12 ?
0

Which growth inhibition is listed for CC1=NOC(=O)/C1=C/c1ccc2c(c1)OCO2 ?
-1

Which growth inhibition is listed for CC(/C=C/c1ccccc1)=N\NC(N)=S ?
-8

Which growth inhibition is listed for O=C1c2ccccc2C(=O)N1CCCC(=O)n1cc(F)c(=O)[nH]c1=O ?
17

Which growth inhibition is listed for COc1nc2c(c(=O)n1C)N=C(c1ccccc1)[C@H](C(CC(=O)c1ccccc1)c1ccccc1)C(c1ccccc1)N2 (stereo partly specified) ?
-34

Which growth inhibition is listed for COc1cc(C2c3cc4c(cc3OC(OC(C)=O)C2C)OCO4)cc(OC)c1OC (stereo unspecified) ?
5

Which growth inhibition is listed for Cc1cc(=O)oc2c(C)c3occc(=O)c3cc12 ?
-1

Which growth inhibition is listed for C/C=C/SC(=Nc1ccccc1)Nc1ccccc1 ?
8
